Attribution: patent US20220259593A1

System: K562 CRISPRi cells
Assay: Constant region variant library pooled growth screen, K562
Format: cell-based, human
Conditions: sgRNA constant region variants; activity relative to the original, un-modified constant region cr995
Would you mind telling me the reported Mean relative activity of each entry?
Answer as a number with no unit attached.

## Input Reported Mean relative activity for cr681 (nucleic acid, listed as DNA, chemistry not fully specified) guide: GTTTAAGAGCTAAGCTGGAAACAGCATAGCAAGTTTAAATAAGGCTACTCCGTTATTAACTTGAAAAAGTGGCACCGAGTCGGTGCT : what is it?
## Output 0.03559

## Input Quick one: Mean relative activity for cr379 (nucleic acid, listed as DNA, chemistry not fully specified) guide: GTTTAAGAGCTAAGCTGGAAACAGCCTAGCAAGTTTAAATAAGGCTAGTCCGTTATCAACTTGAAAAAGTGGCACCGAGTCGGTGCT ?
## Output 1.041

## Input Param item = cr134 (nucleic acid, listed as DNA, chemistry not fully specified) guide: GTTTAAGAGCTAAGCTGGAAACAGCATAGCAAGTTTAAATAAGGCTAGTCCGTTATTAACTTGAACAAGTGGCACCGAGTCGGTGCT ; retrieve measured Mean relative activity.
## Output 0.5692

## Input Mean relative activity lookup needed for cr411 (nucleic acid, listed as DNA, chemistry not fully specified) guide: GTTTAAGAGCTAAGCTGGAAACAGCATAGCAAGTTTAAATAAGACTAGTCCGTTATCAACTTGAAAAAGTGGCACCGAGTCGGTGCT , thanks.
## Output 0.1086
